# PROCEDURE TEXT: Phase 1 Study ABI-1648-006, multiple oral dose pharmacokinetics
# CONDITION SET: female, human, plasma, oral, 5 mg
PROPERTY MEASURED: Cmax (ng/mL)
Give the number; ng/mL is assumed, so skip it.

Looking up CO[C@H]1/C=C/O[C@@]2(C)Oc3c(C)c(O)c4c(=O)c(c5oc6cc(N7CCN(CC(C)C)CC7)cc(O)c6nc-5c4c3C2=O)NC(=O)/C(C)=C\C=C\[C@H](C)[C@H](O)[C@@H](C)[C@@H](O)[C@@H](C)[C@H](OC(C)=O)[C@@H]1C , I found its Cmax recorded as 14.3

----------
# PROCEDURE TEXT: Phase 1 Study ABI-1648-006, single oral dose pharmacokinetics
# CONDITION SET: both, human, plasma, oral, elimination t1/2, study conclusions
PROPERTY MEASURED: half-life

According to the records, this molecule CO[C@H]1/C=C/O[C@@]2(C)Oc3c(C)c(O)c4c(=O)c(c5oc6cc(N7CCN(CC(C)C)CC7)cc(O)c6nc-5c4c3C2=O)NC(=O)/C(C)=C\C=C\[C@H](C)[C@H](O)[C@@H](C)[C@@H](O)[C@@H](C)[C@H](OC(C)=O)[C@@H]1C displays half-life of 100 to 150 h

----------
# PROCEDURE TEXT: Phase 1 Study ABI-1648-006, single oral dose pharmacokinetics
# CONDITION SET: male, human, plasma, po, 2.5 mg, Cmax GMean (geometric mean), males, single oral dose 2.5 mg
PROPERTY MEASURED: Cmax (ng/mL)
Quick note: give the figure in ng/mL, leave out the unit.

Recorded Cmax (molecule CO[C@H]1/C=C/O[C@@]2(C)Oc3c(C)c(O)c4c(=O)c(c5oc6cc(N7CCN(CC(C)C)CC7)cc(O)c6nc-5c4c3C2=O)NC(=O)/C(C)=C\C=C\[C@H](C)[C@H](O)[C@@H](C)[C@@H](O)[C@@H](C)[C@H](OC(C)=O)[C@@H]1C ): 7.8

----------
# PROCEDURE TEXT: Phase 1 Study ABI-1648-006, single oral dose pharmacokinetics
# CONDITION SET: female, human, plasma, po, 25 mg, AUC0−∞ GMean (geometric mean), females, single oral dose 25 mg
PROPERTY MEASURED: AUC(0-inf) (ng·h/mL)
The answer is to be given in ng·h/mL; state only the numeric part.

Just so you know, measured AUC(0-inf) for CO[C@H]1/C=C/O[C@@]2(C)Oc3c(C)c(O)c4c(=O)c(c5oc6cc(N7CCN(CC(C)C)CC7)cc(O)c6nc-5c4c3C2=O)NC(=O)/C(C)=C\C=C\[C@H](C)[C@H](O)[C@@H](C)[C@@H](O)[C@@H](C)[C@H](OC(C)=O)[C@@H]1C [rifalazil] came out at 1020

----------
# PROCEDURE TEXT: Phase 1 Study ABI-1648-006, single oral dose pharmacokinetics
# CONDITION SET: male, human, plasma, po, 12.5 mg, AUC0−∞ GMean (geometric mean), males, single oral dose 12.5 mg
PROPERTY MEASURED: AUC(0-inf) (ng·h/mL)
Please give a number only; it is taken to be in ng·h/mL.

Value of measured AUC(0-inf) for the entry CO[C@H]1/C=C/O[C@@]2(C)Oc3c(C)c(O)c4c(=O)c(c5oc6cc(N7CCN(CC(C)C)CC7)cc(O)c6nc-5c4c3C2=O)NC(=O)/C(C)=C\C=C\[C@H](C)[C@H](O)[C@@H](C)[C@@H](O)[C@@H](C)[C@H](OC(C)=O)[C@@H]1C : 528
